Experiment: Pharmacokinetic study with Compound 218 (IV 5 mg/kg, PO 25 mg/kg)
Assay type: in vivo
Details: dog, plasma; analyte Compound 218; oral 25 mg/kg Compound 218; fasted male beagle dogs; mean; read-out: Compound 218 PK AUClast

compound | AUC(0-t) (ng·h/mL)
CC(=O)[C@H]1CC[C@H]2[C@@H]3CC[C@H]4C[C@](C)(OC(=O)COC(=O)C(C)(C)N)CC[C@]4(C)[C@H]3CC[C@]12C | 359

* * *

Experiment: Mouse liver microsomal stability
Assay type: in vitro ADME
Conditions: mouse liver microsomes 0.5 mg/mL, compound 0.5 μM; read-out: Mouse Liver Microsomal Stability t1/2

compound | half-life [h]
CC(=O)[C@H]1CC[C@H]2[C@@H]3CC[C@H]4C[C@](C)(OC(=O)CN)CC[C@]4(C)[C@H]3CC[C@]12C | 1.97

Data origin: patent US20250034201A1
